Target: recombinant mouse GALK1 (Mus musculus)
Assay: mGALK1 biochemical activity assay (Kinase-Glo Plus, ATP depletion)
Details: Tables 2-15; 35 μM ATP, 100 μM galactose, 1 h; bracketed figure after some values is undefined and not reported; read-out: mGALK IC50
quantity: IC50 (µM)
Could you give me the number in µM? Just the number is fine.

Record lookup: for recombinant mouse GALK1 (Mus musculus), what IC50 belongs to CC1=C(C(=O)Nc2cc(C(=O)O)ccn2)C(c2ccc(-c3ccc(C(F)(F)F)nc3)cc2Cl)N=C(Nc2nc3ccc(F)cc3o2)N1 (centres unmarked) ?
3.85

What value of IC50 on recombinant mouse GALK1 (Mus musculus) does COC(=O)c1cccc(CNC(=O)C2=C(C)NC(Nc3nc4ccccc4o3)=NC2c2ccccc2Cl)c1 (centres unmarked) have?
7.69

Notebook entry, recombinant mouse GALK1 (Mus musculus) assay: IC50 of CC1=C(C(=O)Nc2cc(C(=O)O)ccn2)C(c2ccccc2Cl)N=C(Nc2nc3c(F)cccc3o2)N1 (centres unmarked) = ?
21.7

----------
Some compounds, each annotated with its measured IC50.
Target: recombinant mouse GALK1 (Mus musculus, UniProt Q9R0N0)
Sequence (Q9R0N0 whole entry): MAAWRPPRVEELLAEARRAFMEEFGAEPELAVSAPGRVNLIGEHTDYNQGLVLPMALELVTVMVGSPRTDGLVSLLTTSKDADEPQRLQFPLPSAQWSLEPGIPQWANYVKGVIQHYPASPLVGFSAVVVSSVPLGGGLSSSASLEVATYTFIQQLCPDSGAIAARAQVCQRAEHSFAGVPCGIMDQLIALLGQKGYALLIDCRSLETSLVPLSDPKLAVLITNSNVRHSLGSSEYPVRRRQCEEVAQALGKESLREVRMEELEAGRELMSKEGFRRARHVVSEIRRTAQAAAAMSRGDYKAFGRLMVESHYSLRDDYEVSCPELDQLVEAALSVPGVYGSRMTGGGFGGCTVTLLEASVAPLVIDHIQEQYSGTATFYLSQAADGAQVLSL
Experiment: mGALK1 biochemical activity assay (Kinase-Glo Plus, ATP depletion)
Details: recombinant mouse GALK1, Kinase-Glo Plus ATP depletion; bracketed figure in the cell, e.g. (−1.2), is not defined in the text shown; read-out: mGALK
Write the figure, then the unit, nothing else.

Query: IC50; subject: COCCNC(=O)C1CC(=O)C2=C(C1)NC(Nc1nc3ccccc3o1)=NC2c1ccccc1Cl (centres unmarked)
4.85 µM

Sample COCC1=C(C(=O)Nc2nncs2)C(c2ccccc2Cl)N=C(Nc2nc3ccccc3o2)N1 (centres unmarked) — what was its IC50?
19.3 µM

Quick one: IC50 of CC1=C(C(=O)Nc2cc(C(=O)O)ccn2)C(c2ccccc2Cl)N=C(Nc2nc3ccccc3o2)N1C(=O)c1ccccc1 (centres unmarked) ?
7.69 µM

# query: IC50 of entry CC1=C(C(=O)Nc2nncs2)C(c2ncccc2Br)N=C(Nc2nc3ccccc3o2)N1 (centres unmarked)
6.85 µM

Given the compound CC(C)CC1=C(C(=O)Nc2nncs2)C(c2ccccc2Cl)N=C(Nc2nc3ccccc3o2)N1 (centres unmarked) , what is its reported IC50?
17.2 µM

----------
Assay: aqueous kinetic solubility
quantity: Sol. (µg/mL)
Report the value in µg/mL with no unit label.

>  <molecule>
CC1=C(C(=O)Nc2cc(C(=O)O)ccc2Cl)C(c2ccccc2Cl)N=C(Nc2nc3ccc(F)cc3o2)N1 (stereo not shown)

>  <endpoint_result>
54.0

$$$$
>  <molecule>
CC1=C(C(=O)Nc2nnc(-c3cccnc3)s2)C(c2ccccc2Cl)N=C(Nc2nc3cc(N)ccc3o2)N1 (stereo not shown)

>  <endpoint_result>
1.8

$$$$

Turning now to a further record.
Give its Sol. value. Item: CC1=C(C(=O)Nc2cc(-c3nn[nH]n3)ccn2)C(c2ccccc2Cl)N=C(Nc2nc3ccc(F)cc3o2)N1 (stereo not shown)
29.9

----------
Test: aqueous kinetic solubility
quantity: Sol.

Please review the following examples before continuing.
>  <compound>
CC1=C(C(=O)Nc2cc(C(=O)O)ccn2)[C@H](c2ccccc2Cl)N=C(Nc2nc3ccc(F)cc3o2)N1

>  <Sol.>
55.6 µg/mL

$$$$
>  <compound>
CC1=C(C(=O)Nc2cc(C(=O)O)ccn2)C(c2ccc(F)cc2Cl)N=C(Nc2nc3ccc(F)cc3o2)N1 (stereo not drawn)

>  <Sol.>
40.6 µg/mL

$$$$
>  <compound>
CC1=C(C(=O)NCc2cnn(Cc3ccccc3)c2)C(c2ccc(C)cc2Cl)N=C(Nc2nc3ccc(F)cc3o2)N1 (stereo not drawn)

>  <Sol.>
<1 µg/mL

$$$$

// returns reported Sol. for input CC1=C(C(=O)Nc2cc(C(=O)O)ccn2)C(c2ccc(-n3cccn3)cc2Cl)N=C(Nc2nc3ccc(F)cc3o2)N1 (stereo not drawn)
>87 µg/mL

Dear colleague, I am looking for the recorded Sol. of the following compound: CC1=C(C(=O)Nc2cc(C(=O)O)ccn2)C(c2ccc(C)cc2Cl)N=C(Nc2nc3c(o2)CCCC3)N1 (stereo not drawn)
>52 µg/mL

May I ask what Sol. has been recorded for CC1=C(C(=O)Nc2cc(C(=O)O)ccn2)C(c2ccc(C)cc2Cl)N=C(Nc2nc3cnccc3o2)N1 (stereo not drawn) ?
>51 µg/mL

Fill blank: measured Sol. of the compound CC1=C(C(=O)Nc2cc(C(=O)O)ccn2)C(c2ccccc2Cl)N=C(Nc2nc3cccc(C)c3o2)N1 (stereo not drawn) is ____.
>76 µg/mL

Fill in the blank: the reported Sol. of CC1=C(C(=O)Nc2cc(B(O)O)ccn2)C(c2ccc(C)cc2Cl)N=C(Nc2nc3ccc(F)cc3o2)N1 (stereo not drawn) is ____.
<1 µg/mL

Need Sol., item CC1=C(C(=O)Nc2cc(C(=O)O)ccn2)C(c2cccc(C(F)(F)F)c2)N=C(Nc2nc3ccc(F)cc3o2)N1 (stereo not drawn)
60.1 µg/mL

Which value of Sol. has been reported for CC1=C(C(=O)Nc2cc(C(=O)O)ccn2)C(c2ccccc2Cl)N=C(Nc2nc3cc(N)ccc3o2)N1 (stereo not drawn) in the records?
>76 µg/mL

Look up Sol. for this compound: CNCCNC(=O)C1=C(C)NC(Nc2nc3ccc(F)cc3o2)=NC1c1ccccc1Cl (stereo not drawn)
>67 µg/mL

Sol. for CC1=C(C(=O)Nc2cc(C(=O)O)ccn2)C(c2ccc(-c3ccc(C(F)(F)F)nc3)cc2Cl)N=C(Nc2nc3ccc(F)cc3o2)N1 (stereo not drawn) ?
28.6 µg/mL

Find the recorded Sol. belonging to CC1=C(C(=O)Nc2cc(C#N)ccn2)C(c2ccccc2Cl)N=C(Nc2nc3ccc(F)cc3o2)N1 (stereo not drawn) and report it.
<1 µg/mL

State the recorded Sol. for this entry: CC1=C(C(=O)Nc2ccccn2)C(c2ccccc2Cl)N=C(Nc2nc3cccc(N)c3o2)N1 (stereo not drawn)
<1 µg/mL

What Sol. value was documented for this compound, CC1=C(C(=O)Nc2cc(C(=O)O)ccn2)C(c2ccc(N3CCOCC3)cc2Cl)N=C(Nc2nc3ccc(F)cc3o2)N1 (stereo not drawn) ?
>89 µg/mL

----------
Assay: aqueous kinetic solubility
quantity: Sol. (µg/mL)
Provide only the numeric value, understood in µg/mL.

>  <molecule>
COc1cccc2nc(NC3=NC(c4ccccc4Cl)C(C(=O)Nc4cc(C(=O)O)ccn4)=C(C)N3)oc12 (stereo not shown)

>  <Sol. (µg/mL)>
65.7

$$$$
>  <molecule>
CC1=C(C(=O)Nc2cc(C(=O)O)ccn2)C(c2ccccc2Cl)N=C(Nc2nc3ccc(C)cc3o2)N1 (stereo not shown)

>  <Sol. (µg/mL)>
34.42

$$$$

// next entry
State the recorded Sol. for this entry: CC1=C(C(=O)Nc2cc(C(=O)O)ccn2)C(c2ccccc2Cl)N=C(Nc2nc3ccc(F)cc3o2)N1 (racemic)
46.1

----------
Molecular target: recombinant mouse GALK1 (Mus musculus)
Experiment: mGALK1 biochemical activity assay (Kinase-Glo Plus, ATP depletion)
Settings: Tables 2-15; 35 μM ATP, 100 μM galactose, 1 h; bracketed figure after some values is undefined and not reported; read-out: mGALK IC50
Quick reference: pIC50 of the listed items.
Answer as the number alone; pIC50 is minus log10 of concentration in mol/L.

>  <compound>
CC1=C(C(=O)Nc2cc(C(=O)O)ccn2)C(c2ccccc2Cl)N=C(Nc2nc3ccc(Cl)cc3o2)N1 (centres unmarked)

>  <endpoint_result>
5.21

$$$$
>  <compound>
COc1ccc([C@@H]2N=C(Nc3nc4cccc(N)c4o3)NC(C)=C2C(=O)Nc2cc(C(=O)O)ccn2)c(Cl)c1

>  <endpoint_result>
5.61

$$$$
>  <compound>
CC1=C(C(=O)Nc2ccc(F)cc2)C(c2ccccc2Cl)N=C(Nc2nc3ccccc3o2)N1 (centres unmarked)

>  <endpoint_result>
4.91

$$$$

Request - read-out pIC50 | tested on recombinant mouse GALK1 (Mus musculus) | compound CC1=C(C(=O)Nc2nnc(C(F)(F)F)s2)C(c2ccccc2Cl)N=C(Nc2nc3ccccc3o2)N1 (centres unmarked)
4.66

recombinant mouse GALK1 (Mus musculus) / pIC50 / "CC1=C(C(=O)Nc2cc(C(=O)O)ccn2)[C@H](c2ccc(C)cc2Cl)N=C(Nc2nc3ccc(F)cc3o2)N1" : value?
5.86

Checklist item: pIC50 tested on recombinant mouse GALK1 (Mus musculus), entry CC1=C(C(=O)Nc2ccc(Cl)cc2)C(c2ccccc2Cl)N=C(Nc2nc3ccccc3o2)N1 (centres unmarked) , value?
5.11

Give the reported pIC50 for CCn1cc(CNC(=O)C2=C(C)NC(Nc3nc4cccc(N)c4o3)=NC2c2ccc(C)cc2Cl)cn1 (centres unmarked) (system: recombinant mouse GALK1 (Mus musculus)).
5.51

Provide value of pIC50 for this record tested with recombinant mouse GALK1 (Mus musculus): CC1=C(C(=O)Nc2cccc(CN)c2)C(c2ccccc2Cl)N=C(Nc2nc3ccccc3o2)N1 (centres unmarked)
5.16
